Reference source for all entries: patent US20060247261A1

Reported values of EC50 for individual entries
Target: human cannabinoid CB2 receptor (Homo sapiens, UniProt P34972)
Construct: expressed in transfected cells; host or cells: Saccharomyces cerevisiae strain MMY23 (expresses a chimeric Gpa1/human Galpha-i3 G-protein alpha subunit)
Sequence (P34972 whole entry): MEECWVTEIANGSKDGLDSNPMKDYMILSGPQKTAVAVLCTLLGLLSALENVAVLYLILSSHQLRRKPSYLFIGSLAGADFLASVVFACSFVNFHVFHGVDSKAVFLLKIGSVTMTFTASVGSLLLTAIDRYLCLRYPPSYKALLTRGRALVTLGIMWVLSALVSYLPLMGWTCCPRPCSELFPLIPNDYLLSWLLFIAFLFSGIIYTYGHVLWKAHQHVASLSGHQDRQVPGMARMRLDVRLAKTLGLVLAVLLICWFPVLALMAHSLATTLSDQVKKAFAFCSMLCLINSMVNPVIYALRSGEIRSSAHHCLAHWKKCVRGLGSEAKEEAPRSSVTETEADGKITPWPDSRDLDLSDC
Assay: Cannabinoid CB2 receptor agonist activity, yeast reporter assay
Assay type: cell-based

>>> df
                                   compound                            assayed_target  measured_metric  result
0  N#Cc1ccc(CNC(=O)c2cnc(Nc3ccc(Cl)cc3Cl)nc2C(F)(F)F)cc1 [Example 66]  human cannabinoid CB2 receptor (Homo sapiens, UniProt P34972)             EC50  > 1 µM
1  O=C(NCc1ccc(F)cc1)c1cnc(Nc2ccc(OC(F)(F)F)c(Cl)c2)nc1C(F)(F)F [Example 111]  human cannabinoid CB2 receptor (Homo sapiens, UniProt P34972)             EC50  > 1 µM

What does the data say about its EC50? Entry: O=C(NCc1ccnc(F)c1)c1cnc(Nc2cccc(F)c2)nc1C(F)(F)F [Example 89]
0.02 to 1 µM

What does the data say about its EC50? Entry: O=C(NCc1ccccc1)c1cnc(Nc2ccc(Cl)cc2Cl)nc1C(F)(F)F [Example 8]
0.02 to 1 µM

What does the data say about its EC50? Entry: O=C(NCc1ccncc1)c1cnc(Nc2cccc(Br)c2)nc1C(F)(F)F [Example 21]
0.02 to 1 µM

What does the data say about its EC50? Entry: O=C(NCc1ccncc1)c1cnc(Nc2cccc(F)c2)nc1C(F)(F)F [Example 20]
0.02 to 1 µM

What does the data say about its EC50? Entry: O=C(NCc1ccnc(F)c1)c1cnc(Nc2cc(Cl)cc(Cl)c2)nc1C(F)(F)F [Example 91]
0.02 to 1 µM

====

Molecular target: human cannabinoid CB2 receptor (Homo sapiens, UniProt P34972)
Construct: expressed in transfected cells; host or cells: Saccharomyces cerevisiae strain MMY23 (expresses a chimeric Gpa1/human Galpha-i3 G-protein alpha subunit)
Assay: Cannabinoid CB2 receptor agonist activity, yeast reporter assay
Type: cell-based
measured_metric: EC50

Known results for compounds:
In [3]: df
Out[3]:
                               entry_smiles         result
0  O=C(NCc1ccc(F)c(F)c1)c1cnc(Nc2cccc(Cl)c2)nc1C(F)(F)F  20 to 1000 nM
1  O=C(NCc1ccccc1)c1cnc(Nc2cccc(F)c2)nc1C(F)(F)F  20 to 1000 nM
2  O=C(NCc1ccncc1)c1cnc(Nc2ccc(Cl)c(Cl)c2)nc1C(F)(F)F  20 to 1000 nM

Lab note: need EC50 with human cannabinoid CB2 receptor (Homo sapiens, UniProt P34972) for entry C[C@@H](NC(=O)c1cnc(Nc2cccc(Cl)c2)nc1C(F)(F)F)c1ccccc1 , please look it up.
> 1000 nM

Lab note: need EC50 with human cannabinoid CB2 receptor (Homo sapiens, UniProt P34972) for entry O=C(NCc1cc(F)cc(F)c1)c1cnc(Nc2cccc(Cl)c2)nc1C(F)(F)F , please look it up.
> 1000 nM

Lab note: need EC50 with human cannabinoid CB2 receptor (Homo sapiens, UniProt P34972) for entry O=C(NCc1ccc(F)cc1)c1cnc(Nc2ccc(C(F)(F)F)c(F)c2)nc1C(F)(F)F , please look it up.
20 to 1000 nM

Lab note: need EC50 with human cannabinoid CB2 receptor (Homo sapiens, UniProt P34972) for entry O=C(NCc1ccc(F)cc1)c1cnc(Nc2cccc(Cl)c2F)nc1C(F)(F)F , please look it up.
20 to 1000 nM

Lab note: need EC50 with human cannabinoid CB2 receptor (Homo sapiens, UniProt P34972) for entry O=C(NCc1ccnc(F)c1)c1cnc(Nc2cccc(Br)c2)nc1C(F)(F)F , please look it up.
20 to 1000 nM

Lab note: need EC50 with human cannabinoid CB2 receptor (Homo sapiens, UniProt P34972) for entry O=C(NCc1ccc(F)cc1Cl)c1cnc(Nc2cccc(Cl)c2)nc1C(F)(F)F , please look it up.
> 1000 nM

Lab note: need EC50 with human cannabinoid CB2 receptor (Homo sapiens, UniProt P34972) for entry N#Cc1ccc(CNC(=O)c2cnc(Nc3cccc(Cl)c3)nc2C(F)(F)F)cc1 , please look it up.
20 to 1000 nM

Lab note: need EC50 with human cannabinoid CB2 receptor (Homo sapiens, UniProt P34972) for entry O=C(NCc1ccc(F)cc1)c1cnc(Nc2cccc(Cl)c2Cl)nc1C(F)(F)F , please look it up.
20 to 1000 nM

Lab note: need EC50 with human cannabinoid CB2 receptor (Homo sapiens, UniProt P34972) for entry O=C(NCc1ccnc(F)c1)c1cnc(Nc2ccc(Cl)cc2Cl)nc1C(F)(F)F , please look it up.
20 to 1000 nM

Lab note: need EC50 with human cannabinoid CB2 receptor (Homo sapiens, UniProt P34972) for entry N#Cc1ccc(CNC(=O)c2cnc(Nc3c(Cl)cccc3Cl)nc2C(F)(F)F)cc1 , please look it up.
> 1000 nM

Lab note: need EC50 with human cannabinoid CB2 receptor (Homo sapiens, UniProt P34972) for entry O=C(NCc1ccc(F)cc1C(F)(F)F)c1cnc(Nc2cccc(Cl)c2)nc1C(F)(F)F , please look it up.
> 1000 nM

Lab note: need EC50 with human cannabinoid CB2 receptor (Homo sapiens, UniProt P34972) for entry O=C(NCc1ccc(F)cc1)c1cnc(Nc2c(Cl)cccc2Cl)nc1C(F)(F)F , please look it up.
> 1000 nM

Lab note: need EC50 with human cannabinoid CB2 receptor (Homo sapiens, UniProt P34972) for entry O=C(NCc1ccc(F)cc1F)c1cnc(Nc2cccc(Cl)c2)nc1C(F)(F)F , please look it up.
20 to 1000 nM

Lab note: need EC50 with human cannabinoid CB2 receptor (Homo sapiens, UniProt P34972) for entry O=C(NCc1ccncc1)c1cnc(Nc2cccc(Cl)c2Cl)nc1C(F)(F)F , please look it up.
20 to 1000 nM

Lab note: need EC50 with human cannabinoid CB2 receptor (Homo sapiens, UniProt P34972) for entry CN(Cc1ccccc1)C(=O)c1cnc(Nc2ccc(Cl)c(Cl)c2)nc1C(F)(F)F , please look it up.
> 1000 nM

Lab note: need EC50 with human cannabinoid CB2 receptor (Homo sapiens, UniProt P34972) for entry O=C(O)Cc1cccc(Nc2ncc(C(=O)NCc3ccc(F)cc3)c(C(F)(F)F)n2)c1 , please look it up.
> 1000 nM

Lab note: need EC50 with human cannabinoid CB2 receptor (Homo sapiens, UniProt P34972) for entry O=C(NCc1ccncn1)c1cnc(Nc2cccc(F)c2)nc1C(F)(F)F , please look it up.
> 1000 nM

====

Target: human cannabinoid CB2 receptor (Homo sapiens, UniProt P34972)
Construct: expressed in transfected cells; host or cells: Saccharomyces cerevisiae strain MMY23 (expresses a chimeric Gpa1/human Galpha-i3 G-protein alpha subunit)
Assay: Cannabinoid CB2 receptor agonist activity, yeast reporter assay
Format: cell-based
pEC50: −log10 of the molar value.
Reported values of pEC50 for individual entries

Known results for molecules:
                                   molecule        result
0  O=C(NCc1ccncc1)c1cnc(Nc2c(Cl)cccc2Cl)nc1C(F)(F)F [Example 69]        < 6.00
1  O=C(NCc1ccccc1)c1cnc(Nc2cccc(Br)c2)nc1C(F)(F)F [Example 13]  6.00 to 7.70
2  O=C(NCc1ccncc1)c1cnc(Nc2cc(Cl)cc(Cl)c2)nc1C(F)(F)F [Example 22]  6.00 to 7.70

What does the data say about its pEC50? Entry: CN(Cc1ccccc1)C(=O)c1cnc(Nc2cc(Cl)ccc2Cl)nc1C(F)(F)F [Example 58]
< 6.00

What does the data say about its pEC50? Entry: O=C(NCc1ccncc1)c1cnc(Nc2ccc(Cl)cc2Cl)nc1C(F)(F)F [Example 17]
6.00 to 7.70

What does the data say about its pEC50? Entry: CN(Cc1ccccc1)C(=O)c1cnc(Nc2c(Cl)cccc2Cl)nc1C(F)(F)F [Example 10]
6.00 to 7.70

What does the data say about its pEC50? Entry: O=C(NCc1ccc(OC(F)(F)F)cc1)c1cnc(Nc2cccc(Cl)c2)nc1C(F)(F)F [Example 62]
< 6.00

What does the data say about its pEC50? Entry: CN(Cc1ccc(F)cc1)C(=O)c1cnc(Nc2cccc(Cl)c2)nc1C(F)(F)F [Example 110]
< 6.00

====

Reported values of pEC50 for individual entries
Target: human cannabinoid CB2 receptor (Homo sapiens, UniProt P34972)
Construct: expressed in transfected cells; host or cells: Saccharomyces cerevisiae strain MMY23 (expresses a chimeric Gpa1/human Galpha-i3 G-protein alpha subunit)
Assay: Cannabinoid CB2 receptor agonist activity, yeast reporter assay
Format: cell-based
pEC50: −log10 of the molar value.

                               entry_smiles  measured_metric        result
0  O=C(NCc1ccc(F)cc1)c1cnc(Nc2cc(Cl)ccc2F)nc1C(F)(F)F            pEC50  6.00 to 7.70
1  O=C(NCc1ccc(F)cc1)c1cnc(Nc2cc(Cl)ccc2Cl)nc1C(F)(F)F            pEC50  6.00 to 7.70
2  COc1cccc(Nc2ncc(C(=O)NCc3ccncc3)c(C(F)(F)F)n2)c1            pEC50  6.00 to 7.70
3  O=C(NCc1ccc(F)cc1)c1cnc(Nc2ccc(Cl)c(Cl)c2)nc1C(F)(F)F            pEC50  6.00 to 7.70
4  O=C(NCc1ccnc(F)c1)c1cnc(Nc2ccc(Cl)c(Cl)c2)nc1C(F)(F)F            pEC50  6.00 to 7.70
5  CN(Cc1ccccc1)C(=O)c1cnc(Nc2ccc(C#N)cc2)nc1C(F)(F)F            pEC50        < 6.00
6  N#Cc1ccc(Nc2ncc(C(=O)NCc3ccccc3)c(C(F)(F)F)n2)cc1            pEC50  6.00 to 7.70
7  N#Cc1cccc(Nc2ncc(C(=O)NCc3ccccc3)c(C(F)(F)F)n2)c1            pEC50  6.00 to 7.70
8  O=C(NCc1ccc(F)c(C(F)(F)F)c1)c1cnc(Nc2cccc(Cl)c2)nc1C(F)(F)F            pEC50        < 6.00

Next molecule, please.
What does the data say about its pEC50? Entry: O=C(NCc1ccc(F)cc1)c1cnc(Nc2cccc(F)c2)nc1C(F)(F)F
6.00 to 7.70
